- method-description: Solubility in distilled water for injection drug
- Type: physicochemical
- cond: Compound 3 alone, read-out: Solubility (as Compound 3)

compound	solubility
O=C(NC(=O)c1ccccc1[N+](=O)[O-])Nc1ccc(Oc2ncc(Br)cn2)c(Cl)c1 [Compound 3]	0.024 µg/mL
